# testSummary: Pharmacokinetic Determination (Mouse PK)
# Assay type: in vivo, female CD-1 mice
# experimentalParameters: female, CD-1, plasma, PO, 10.0 mg/kg
endpointName: Tmax (h)

Known results for compounds:
// Tmax lookup, compound = C[C@@H]1Cc2c([nH]c3ccccc23)[C@@H](c2c(F)cc(O[C@H]3CCN(CCCF)C3)cc2F)N1C12CC(C1)C2 (single isomer, unassigned) , result: 1

Reported Tmax for C[C@@H]1Cc2c([nH]c3ccccc23)[C@@H](c2cnc(NC3CN(CCCF)C3)cn2)N1C12CC(C1)C2 was 1

get_value(item= C[C@@H]1Cc2c([nH]c3ccccc23)[C@@H](c2ccc(NC3CN(CCCF)C3)cc2F)N1C12CC(C1)C2 , readout=Tmax) returns 1

Notebook: C[C@@H]1Cc2c([nH]c3ccccc23)[C@@H](c2c(F)cc(NC3CN(CCCF)C3)cc2F)N1C12CC(C1)C2 , Tmax read as 2

The compound listed as C[C@@H]1Cc2c([nH]c3ccccc23)[C@@H](c2ccc(NC3CN(CCCF)C3)cc2)N1C12CC(CO)(C1)C2 (single isomer, unassigned) shows Tmax equal to 2

Measured Tmax, C[C@@H]1Cc2c([nH]c3ccccc23)[C@@H](c2c(F)cc(NC3CN(CCCF)C3)cc2F)N1CC(F)(F)CO [GDC9545, reference compound] : 4

Looking up C[C@@H]1Cc2c([nH]c3ccccc23)[C@@H](c2c(F)cc(N[C@H]3CCN(CCCF)C3)cc2F)N1C12CC(C1)C2 , I see its Tmax listed as 1

I = C[C@@H]1Cc2c([nH]c3ccccc23)[C@@H](c2ccc(N[C@H]3CCN(CCCF)C3)cc2)N1C12CC(C1)C2
II = CCCN1CC[C@H](Nc2ccc([C@@H]3c4[nH]c5ccccc5c4C[C@@H](C)N3C34CC(C3)C4)cc2)C1
III = C[C@@H]1Cc2c([nH]c3ccccc23)[C@@H](c2c(F)cc(N[C@H]3CCN(CCCF)C3)cc2F)N1C12CC(CO)(C1)C2 (single isomer, unassigned)
IV = C[C@@H]1Cc2c([nH]c3ccccc23)[C@@H](c2ccc(NC3CN(CCCF)C3)nc2)N1C12CC(C1)C2
V = C[C@@H]1Cc2c([nH]c3ccccc23)[C@@H](c2ccc(O[C@H]3CCN(CCCF)C3)nc2)N1C12CC(C1)C2 (single isomer, unassigned)
**Q:** Kindly order the items shown according to Tmax, from the highest value down. The reply should contain the labels ordered as requested.
**A:** II, III, I, V, IV
(II: 4 h, III: 2 h, I: 1 h, V: 0.5 h, IV: 0.25 h)
